Hello, the source for this data is patent US20140057807A1, in case you need it.

- Study System: T1, yeast small ubiquitin-like modifier protein (yeast, UniProt Q12306 3-98 = SUMO)
- T1 construct: GST fusion in most phage ELISAs, His-tagged or tag-cleaved elsewhere; also called ySUMO; yeast SUMO
- T1 sequence (Q12306 3-98 limits assumed): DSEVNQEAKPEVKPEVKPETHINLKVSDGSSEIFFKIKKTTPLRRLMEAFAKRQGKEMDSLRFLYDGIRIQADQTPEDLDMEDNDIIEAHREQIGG
- Test Method Notes: SPR (Biacore 2000), monobody immobilised via His-tag on NTA surface, ySUMO flowed over it
pKd: −log10 of the molar value.

Binder	pKd
ySMB-ST5 (designed binder) VSSVPTKLEVVAATPTSLLISWDASSSSVSYYRITYGETGGNSPVQEFTVPGSSSTATISGLSPGVDYTITVYAYYSYYNIFFADSPSSINYRT	6.95
ySMB-ST2 (designed binder) VSSVPTKLEVVAATPTSLLISWDASSSSVSYYRITYGETGGNSPVQEFTVPGSSSTATISGLSPGVDYTITVYAYYSEEFFDYAVSPSSINYRT	6.71
ySMB-ST1 (designed binder) VSSVPTKLEVVAATPTSLLISWDASSSSVSYYRITYGETGGNSPVQEFTVPGSSSTATISGLSPGVDYTITVYAYYSYYDIYYAVSPSSINYRT	7.41
ySMB-ST3 (designed binder) VSSVPTKLEVVAATPTSLLISWDASSSSVSYYRITYGETGGNSPVQEFTVPGSSSTATISGLSPGVDYTITVFAYYSEEFFDYAYSPSSINYRT	6.36
ySMB-ST4 (designed binder) VSSVPTKLEVVAATPTSLLISWDASSSSVSYYRITYGETGGNSPVQEFTVPGSSSTATISGLSPGVDYTITVYAYYSDDFLDFAFSPSSINYRT	5.48
ySMB-1 (designed binder, it may hold only the diversified positions and not the whole FnIII domain; BC and DE loops are polyserine; also called monobody ySMB-1; FnIII domain variant ySMB-1) VSSVPTKLEVVAATPTSLLISWDASSSSVSYYRITYGETGGNSPVQEFTVPGSSSTATISGLSPGVDYTITVYAYYSYYDLYYSYSPSSINYRT	7.14
